- ASSAY NOTES: soluble fraction after stress (log2 fold change); higher = more stays soluble; pooled small domains, quantitative proteomics;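 further: 20 min heating vs room temperature control held 20 min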
- CONDITION NOTES: stress: 75 degC
Let's look at some sequences and their measured soluble fraction (log2).

| RESIDUE CODES | soluble fraction (log2) |
| --- | --- |
| HMEVGVSGTVFNTDSLNVRKGPGTNFDTVTSLKRGSVVEVFEQSAVDGTVWGRIANGWVNMQYVSL | -0.707 |
| HMLGVLEYYNNGQKKSERTFKGGMQIYTEWYENGQMKAEERKWIDQLGSLKFLNLLSTEWDENGNEISRME | -1.55 |
| HMAEKRTAIITTARADIRQKPEATAPLAFEAVKDVVLELTDKPADGWVRVKHRDGSTGYIRINQI | 0.0638 |
| HMYSVVGKKGIVIEDINYSTGTGQIKSEGEVWSAKTNEQINIPKGTEIEIESIDGVKVIVKPL | 0.109 |
| HMGSIRDIIVQYLSKFDDPQPAAKIVEYVQQYRDTTESSIRSSMGSGDQFVQFSGGLYGLKDKTYAAWYSI | -0.916 |
| HMEGDKEIPNVIGKSINDAKKILEQAGLKLGEVKKVNDSSVAKNVVLSTNPNAGTKVSAGDAVSITVAEG | 0.106 |
| HMPPELSDEVMEEAMSYLKNQYLNHGVKLEDYPALNKLFVDEAFRSEVIRKTQSNYKISYQSAMASLD | 0.355 |
| HMARHIHFEVHVQQAGRWSIHAQFGAGQREKAIEEAKKIEKTPGFDSVKVVKETYDSDLGNHQDTTIYRGP | -1.18 |
| HMSIYYQIYESLKKDLSNNLYKPGEKLPSENVLSKRFGVNRHTIRRSLQLLKNEGILFSKRGSGIIVHD | -3.45 |
| HMKGQLVVFPNPASSNDMVRFNKNISFSIFDITGHLVDTKRNVNELSVGNLEAGTYILRTEQGDVLRMVI | -1.45 |
| HMTFENMFIENSGETLDREFLVENLRGISWQSYDRSVDVLVSRLRGKLGETPNNTRFIKTIHGVGYKFIGE | 0.353 |
| HMLISYRVDALANEAGLSVDTIRYYQKLGILDPPKRTGRHSEYSPDHLERLIEIRRLADAGLTLSQISEI | -2.55 |
| HMQGRIYLNPDLAEKLRAQYAAYPHWSYLLHTENLGALVRKTESLGPMPSYSTILRYMHANDMRKRNKP | -1.78 |
| HMHIDQVIRERRLALGLTQEELANKIGVSAPAVSKWEKRVSYPDITLLPALARILGTDVNTLLTFS | -1.08 |
| HMKSKNILLGEYKGKEVHVGEGKYGPFILYDKKFKSIGAYLTENSLMLKDLTIEDYSKIMKFTENSNSKS | -0.91 |
| HMNDLDSLWDIWENLNERGIGDKSEEGQELRDAIREFIDTNELNVRVTRNKTNEDLLTDIEDALEVAKNS | -0.588 |
| HMFDLKKIYGTILDETKSSLLLSTDDGREVQIIKTDGTEVLASGLGVYVEVAYRDETPDGYPIALTI | -0.41 |

----------
Let's look at some sequences and their measured soluble fraction (log2).
- ASSAY NOTES: soluble fraction after stress (log2 fold change); higher = more stays soluble; pooled small domains, quantitative proteomics
- CONDITION NOTES: stress: 75 degC
ASSAY READOUT: soluble fraction (log2)

| RESIDUE CODES | REPORTED |
| --- | --- |
| HMENPPISVVIPPSFRGQRIDKALGSLIGDYSRSKIQQWLQSGLVQSAGEPLLPKYTVLGNEQILIAVPS | -0.13 |
| HMTEPIESVTTIAGRRIPYRLVRSLRARRMRMTIKESQVTVTLPRGVPLGEAERFLQQNAAWLFKQLDKP | -2.63 |
| HMKKRDANSQGTRLILFYMLQRLHTEYKLQGFVTYNQRRSFREIYDAYHALGGNGFGTAMWEEVKELDLK | -2.18 |
| HMEVADAAQRKILQALQVQPLTVEQLSQELRTDTGDLLVSLSMMEITGLIRREAGNTFLAVFAPK | -1.66 |
| HMNKKLEMKIEQLDLSVRLFNSLKRSGIYTVAQIIKLTEEDVMRFRSLGRKSFKELKEKLSEHGLEFE | -2.14 |
| HMGQISDESVLKEMVVQLIADNPKEVASYLGGKETLLQWFMGQVARATKGKADPQAVKQLLLDEFEKLK | 0.0498 |
| HMSVTVPDVKRMQAEDAKALLSRYRLRSEVIDSVYVDNIPRGAVVEQIPRENSSVKENRIVFLTINSN | -0.569 |
| HMDTITDSYTLEKGKLRAKVMEYELPESKKKEYSATFEYRGVYYHMIGIIEKADFEEILKNLHFP | -0.168 |
| HMAAEPDQQLIKPASDPVLRTMKIEELMKMSEQVKIQMSKAAKNFDYLEAARLRDEHFALENLIKLRS | -0.106 |
| HMRSMEKRLTAKVKRVQEGVQAKSQAGEQPFEVVKLMQRFPKLMQFGKHAEAETVLDKALELLGEE | -0.0318 |

----------
- ASSAY NOTES: soluble fraction after stress (log2 fold change); higher = more stays soluble; pooled small domains, quantitative proteomics
- CONDITION NOTES: stress: 75 degC
Let's look at some sequences and their measured soluble fraction (log2).
ASSAY READOUT: soluble fraction (log2)

| RESIDUE CODES | REPORTED |
| --- | --- |
| HMDLEELSNKMNNVFESLSSDLRDIIIMSDIEGLSYEEISHKINIPIGTVRSRLHRARDLMVRVIKEN | -0.517 |
| HMNIDQAFISDLERMIMPDISKYELMDIISIMENSGFTIKVEGTGNEVRQVIKPGSKLKKGQKIKIKL | -2.03 |
| HMAPDDTAVWSAFIGWFRTAPDGPNPLGAYAAKLGEEGLDAAEVGRRMTVIVRLFAEKPEGAEVFYDRTYA | -2.66 |
| HMKEGGGYGQLRLKEAAIQHAFDLQNALQFIAERGYQAHENTTLKEAANALNLKPIELLELLKSSQ | 0.0627 |
| HMSGPFTELTPREREILSHLAEGQSNKVIARHLQISDGTVKLHVKAILRKLEVHSRVEAAVMAVEHGV | -2.18 |
| HMLTIQNYFNQVKNIDWEQVPAALSKGHQLVEGASQNNWSAYHSNANIQRVVEAYFQKLNDYLEKN | -0.0425 |
| HMAQSTALVNLAQAEINKRGLTQTEVQARLSEEGINVNSISPAEYPKYQKQILSILDQMQKEKQLSKEV | 0.287 |
| HMYFGNSLFQARKRSGLSQEGVAEKLGVSRQTVSKWETGETVPDIYQSKKMARLYGVSLDEL | 0.206 |
| HMDMRLADLIGRDGITITFMRPSGKVEIDGEIYDAVSDVGLIDKNEEVEVIKFENAQLVVTKKNKN | 0.102 |
| HMNEVETWSVQADGATGRIDKWLAEQNEWSRSQVQEWLKAGRVEVDGRVVKPNYKLSGTESIAVHIPEAV | -0.244 |
| HMGYDDLEPFDANGRLRWSDQELVLAFGRHRGATLRTLELNDPSYLRWLLSGNGPLEQQDIQRLEQILES | -1.55 |
| HMDREQLELYVGEVRVLQVGELRRIAIGNGKVLQASALDRGQLLLIPEAPGQSVLYLWTRDGTERHLSISV | 0.0104 |
| HMQSVSANSVQKQLADIIDGEDKTHPLSDRELTEKLVAQGVQISRRTVAKYREAMGIPGASGRKQ | -0.0543 |
| HMITLYIHNLEEVGKRLDHYLVSNLDDHSRSQIQSWIRSGSILVNDRSVKTGYSLELNDQILINPPK | -2.51 |

----------
- ASSAY NOTES: soluble fraction after stress (log2 fold change); higher = more stays soluble; pooled small domains, quantitative proteomics
- CONDITION NOTES: stress: 75 degC
Let's look at some sequences and their measured soluble fraction (log2).
ASSAY READOUT: soluble fraction (log2)

| RESIDUE CODES | REPORTED |
| --- | --- |
| HMPSSAYGPYKNVFLSNSELTKLKNELPTSWEHYINRLSEYMRSTGRQYQSHAATILRWAATDRNS | -0.488 |
| HMIFSIIPGQIRLTKMEIADGYLVLYGFTPSKEIYNLHLNPALKSIFTSSETSFIPVSGGLKFMSTNKL | -2.35 |
| HMKTDLQIQQDVMAELKWEPKVNAAHIGVEVKHGVVTLSGHVDSFAEKWNAEQAAKRVAGVKFIAIELDV | -2.1 |
| HMPKNVEVPNVVGLSLPMAKLRLTQLGLHIVVRDSVWSETGQPNTILDQDPQPGKKIKPESTVYVKVN | -1.48 |
| HMDMNVQNYRGLSLDRAKKLISDLGLKYEVVGTGDSVVKQVPSSGSRMSKENGRIILYTENVEDA | -0.0826 |
| HMTGTKEQQVVMLNNILQKQLQAFELQGKRDYPMVTMKNMYNTLSKMVENAGLQTVESYFVDPIKGQQM | -0.694 |
| HMNLTSSDIQKILSYALLADNSITLNSIEESMASLKLKKMSAEQLIELLEVSSMVLRNTNNSWSIL | -2.28 |
| HMRIYFSPSEIGFYHESDKQAYLLAGTWPNDLLEISEKWFLYLLEGQQKGKVITVNDYDQPVLVD | -2.9 |
| HMDDPTVILFDPKNGQRKIVKWKAGLTLYSARRSAGISSAAEATIQRAGKSLSGRTATALEPGDVIRW | -1.74 |
| HMAYMETIERVEALAPGTKFNLKALFGTDWTQSRGTKLTLGKTFYEMVESGYVKTAKVLGKDSSNIMQYER | 0.0793 |
| HMRLPVELTDREVEVLRLLAQAMSNGEIARELYIGEATVKTHVSNVLQKLGARDRVAAVVWAHRYGL | -2.08 |
| HMETVQTGTVKVSNSLNVRSGAGTNYSVLGSLSNGAKVEIVGTSGSWYKIKYGSGYGYVSKDYVTVS | -0.0122 |
| HMDSEKVLTNLKEELVLQLSNIEPYGYVPSQYWYSKVQRVQSVQELGKYVDGDLEAFVMKYAEDWESQK | -0.115 |
| HMSTQGRRIEILRHLTQTKKKADVNFVELGRTFGTSDTTIRKDLDWLIKNEYWENHGEWKPTQAGLNMI | 0.0518 |
| HMNALNDLESKIFEEVVKAPEIIMNMTIREFASTVHASPTTIVRMTHKLGFSGWNELKTYLQKQKHQIS | -1.72 |
| HMGSGKGAAHTILGISADASDDEIKAAWRKLVQENHPDKLVSQGLPDEFVQAATDRLRLINTAYQSMLNRP | -0.0948 |
| HMTAMDTQQKKLIIMYHDIHRLRNVEHFTIQRIADHLLLNFRTVKKFLEMTQEEFDKFSENRW | -2.89 |
| HMKVSRTAVKLHHANAVEVAKKLQPLFVVGDVQIEPVKDAGIILLKGPASTLADLRESIVQMDHTA | -0.188 |
| HMGDGAWQQGEGGRWWYKYNNGTYPKDRVVTIGGKKYGFDSEGWMLSDTTKAFGGTTYSFAADGVATAQA | -0.0039 |
| HMKSAIGEEKAENFAFADLGMDPLSAEGVRTEFGFEQGQFVYKVYFTADGTEYEYWIKASDGSVVKKGMDL | -1.53 |
| HMELNEIEFENLKESIIIHLEKESLSPHELVKHIQTIHPDKVTAVIQWMLENGFIKTDAGGQLTLVSK | 0.199 |
| HMKKTFSKSSVMEAIFRDIPNITIPNAHEVYTLIKNISVMNKRKSITSEDIEKAYDALGLTP | -0.928 |
| HMGRHSPLSIEQKEQLKTEIVALQQQRGGGRVTAVNIAELIQQKFNVVYNPNSLYKLLKQIGMSWV | -1.94 |
| HMNMSVVEKVIQQISNPGRDSLIPILQAVQEEEGFISRESVIEIGKALDLPASKIYGVATFYNQFR | -0.206 |
| HMTADIRFLNSRKFYIYKVEKGETLFSISQKFNIPQEEIIQFNKDINQQGLKAKTKLWVPAYSWL | -3.46 |
| HMVPLGDLSKNERRAMELAATNGNVTTRALADDAQVTKRTASTTLRRLAKRGLLEWIGKGPSDPGQFYRIP | -0.351 |
| HMDPSDQLYTVPPSAEGLRLDLFLVQHVPHMTRALATQLTGAGQVRVNGRRAKKGDRLPSGAQVRLEQAP | -0.85 |
| HMGAEIRDKVRAALAGLNPRAAEIFVMRYFDGYGNREIARLLNTSWSTIAVTLHRTRAKLQKELK | -0.0467 |
| HMSQLVTGVLRNLNDISEKIAAGKAVPEMLGRLENMQQMIANLKGNEGLIKSISILTRSAQDALR | -0.484 |
